# System: OVCAR-3
# experimental.protocol: NCI tumour cell line growth inhibition, 48 h
The source made the active and inactive calls. Cut-off read from the data, not from the text of the source: active = GI50 up to about 1.1 µM and inactive = higher.
Answer with one of the outcomes given here: active, inactive

# molecule, target.under.test, assigned.category
rows = [
    ("O=C1C=CC(=O)c2c1ccc1c3ccccc3n(Cc3ccc([N+](=O)[O-])cc3)c21", "OVCAR-3", "inactive"),
    ("O=C(C=P(c1ccccc1)(c1ccccc1)c1ccccc1)c1ccccc1-c1ccccc1C(=O)C=P(c1ccccc1)(c1ccccc1)c1ccccc1", "OVCAR-3", "active"),
    ("Cc1ccc2nc(-c3ccc(NC(=O)c4ccc(N)cc4)c(S(=O)(=O)O)c3)sc2c1", "OVCAR-3", "inactive"),
    ("CNC(=O)O/N=C1\\N(C)CN(c2ccccc2)C12CCN(CCCC(=O)c1ccc(F)cc1)CC2", "OVCAR-3", "inactive"),
    ("O=C(CC1(O)C(=O)Nc2ccccc21)c1ccc(Cl)cc1Cl (stereo not given)", "OVCAR-3", "inactive"),
]

Tell me the recorded outcome of this test for CCOP(=O)(OCC)c1ccc(=O)[nH]c1-c1cccs1 .
inactive

State the result this test recorded for Cc1ccc(/C=N/NS(=O)(=O)c2ccccc2)cc1C .
inactive

For COC(=O)c1c(C)c2c(c(C)c1O)OC(=O)c1c(C)cc(O)c(C=O)c1O2 , which call appears in the assay record?
inactive

How was COC(=O)C1CCC(=O)N1C(c1cc(OC)c(OC)c(OC)c1)c1cc(OC)c(OC)c(OC)c1 (stereo not given) classified in this test?
inactive

For c1ccc2cc(OCC3CO3)c(OCC3CO3)cc2c1 (stereo not given) , which call appears in the assay record?
inactive

What outcome does the record of this test show for CCOC(=O)C(NC(=O)CC)(Nc1ccc(S(=O)(=O)Nc2nc(C)cc(C)n2)cc1)C(F)(F)F (stereo not given) ?
inactive

Returns: the outcome recorded for Cc1cccc2ns[s+]c12 in this assay.
inactive

Identify the outcome logged in this assay for the molecule shown: COc1ccc(/C=C(/c2ccccc2)c2c(C)cc(C)c(/C(=C\c3ccc(OC)cc3)c3ccccc3)c2/N=N/c2cc(C)cc(C)c2)cc1
inactive

Query: recorded result category for COc1cc2c(c(OC)c1OC)C(=O)[C@H]1OC(=O)N[C@@H]21 in this test
inactive

Would you mind telling me which call this test gave Cc1cccc2c(=O)c3cccc(CC(=O)O)c3oc12 ?
inactive

Could you check what this test reported for Clc1ccc(C2ON=C(c3ccccc3)N2C23CC4CC(CC(C4)C2)C3)cc1Cl (stereo not given) ?
inactive

// param item: NC1=NC(=O)[C@H](Cc2c[nH]c3ccccc23)N1C(=O)OCc1ccccc1 ; yields the recorded call
inactive

Test call, this molecule: CCCCc1c2c(c(C)c3c1C(=O)OC3)Oc1ccccc1O2
active

Please state the recorded outcome for this molecule: O=C1[C@@H]2C3C=CC([C@H]4C(=O)N(CO)C(=O)[C@@H]34)[C@@H]2C(=O)N1CO
inactive

Could you check what this test reported for Cc1ccc(N2CCN(CCC(=O)O)CC2)cc1 ?
inactive

====

Recorded measurements of GI50, one per entry
# Tested on: 786-0
# experimental.protocol: NCI tumour cell line growth inhibition, 48 h
Active and inactive are the calls of the source. Rule as the data show it: active = GI50 up to about 1.1 µM and inactive = higher.

Take a look at these entries with their results.
# molecule, measurement.label, result
records = [
    ("O=C(CC1(O)C(=O)Nc2ccccc21)c1ccncc1 (stereo not given)", "GI50", "> 100 µM (inactive)"),
    ("CS(=O)(=O)OC1CN2CCC1CC2 (stereo not given)", "GI50", "> 100 µM (inactive)"),
    ("O=C1CCCC2=C1CC1=C(CCCC1=O)N2c1ccccc1C(=O)O", "GI50", "> 100 µM (inactive)"),
    ("CCOC(=O)C12CN(C34CC5CC(CC(C5)C3)C4)CC(C(=O)OCC)(C1=O)C(c1ccccc1)OC2c1ccccc1 (stereo not given)", "GI50", "> 100 µM (inactive)"),
    ("c1ccc2c(c1)OC(N1CCCC1)c1cnc(N3CCCC3)nc1-2 (stereo not given)", "GI50", "40.3 µM (inactive)"),
    ("O=[N+]([O-])c1ccc(-c2nnc(C34CC5CC(CC(C5)C3)C4)o2)cc1", "GI50", "> 100 µM (inactive)"),
    ("COc1ccc(/C=C(/c2ccccc2)c2c(C)cc(C)c(/C(=C\\c3ccc(OC)cc3)c3ccccc3)c2/N=N/c2cc(C)cc(C)c2)cc1", "GI50", "13.7 µM (inactive)"),
    ("COC(=O)CC1C(=O)OCc2c1cc1n(c2=O)Cc2c-1nc1ccccc1c2OC (stereo not given)", "GI50", "37.3 µM (inactive)"),
    ("COc1ccc2[nH]c(C(O)(Cc3cccnc3)Cc3cccnc3)cc2c1", "GI50", "> 100 µM (inactive)"),
]

# ---- query molecule ----
# return recorded GI50 for input COc1ccc(/C=C/c2cc(OC)c(OC)c(OC)c2)cc1OC
> 76.9 µM (inactive)

====

# Test system: SK-OV-3
# experimental.protocol: NCI tumour cell line growth inhibition, 48 h
The source made the active and inactive calls. Cut-off read from the data, not from the text of the source: active = GI50 up to about 1.1 µM and inactive = higher.
measurement.label: GI50

# compound, GI50
data = [
    ("CCCCN1CN2C(=O)C(C(=O)OCC)C(=O)c3sc4nc(SC)nc1c4c32 (stereo not given)", "17.6 µM (inactive)"),
    ("Cc1ccc(NC(=O)CC/C(CC(=O)C(C)(C)C)=N\\NC(=O)C[n+]2ccccc2)cc1C", "> 100 µM (inactive)"),
    ("CCOC(=O)c1ccc(C)c(/N=N/N(C)C)c1", "> 100 µM (inactive)"),
    ("C[n+]1c(-c2ccc(/C=N/N=C/c3ccc(-c4cn5ccccc5[n+]4C)cc3)cc2)cn2ccccc21", "> 100 µM (inactive)"),
    ("CC(=O)OCCC(O[Si](c1ccccc1)(c1ccccc1)C(C)(C)C)C(C)(C)O (stereo not given)", "42.7 µM (inactive)"),
    ("Cc1cc(O)c(-c2cc(O)c(C)cc2O)cc1O", "16.8 µM (inactive)"),
]

Next:
// Input: CN(C(=O)C12C3C4C5C3C1(C(=O)C13C6C7C8C6C1C8C73)C5C42)C(C)(C)C (stereo not given) . Output its GI50 only.
> 50 µM (inactive)

====

# System: OVCAR-8
# experimental.protocol: NCI tumour cell line growth inhibition, 48 h
Calls of active or inactive are those of the source. No stated cut-off is given here; in the data, active = GI50 up to about 1.1 µM and inactive = higher.
Mark one answer only. Choices: yes (1) (active), no (0) (inactive)

Recorded results for 5 molecules are shown here.
# molecule, assigned.category
rows = [
    ("[N-]=[N+]=C(C(=O)OCC#CCOC(=O)C(=[N+]=[N-])S(=O)(=O)c1ccccc1)S(=O)(=O)c1ccccc1", "no (0)"),
    ("CC1Cc2cc(O)c(O)cc2-c2cc(O)c(O)cc2CC1C (configuration not stated)", "no (0)"),
    ("c1ccc2c(c1)N=C(c1cccc3ccccc13)CC(c1cccc3ccccc13)S2 (configuration not stated)", "no (0)"),
    ("O=C(O)CC(NC(=O)/C(=C/c1ccccc1O)NC(=O)c1ccccc1)C(=O)O (configuration not stated)", "no (0)"),
    ("Cc1ccc2c(c1)NC(=O)CC(c1ccccc1)=N2", "no (0)"),
]

Per the assay record, what outcome was assigned to COc1cc(OC)c2c(O)c3c(cc2c1)CC(C)(C)CC3=O ?
no (0)

How was CCOC(=O)Cn1c(=O)c(C)cn(COCCO)c1=O classified in this test?
no (0)

Look up the recorded call for NC(=O)c1ncn2c(=O)n(CCl)nnc12 in this test.
no (0)

Hi, do you know how CC/C=C/c1cc2cc[nH]c2c2c1C(C)C[C@@H]2C (some centres not stated) came out in this test?
no (0)

Please indicate how the test categorized Clc1ccc(C2ON=C(c3ccccc3)N2C23CC4CC(CC(C4)C2)C3)cc1Cl (configuration not stated) .
no (0)

For C=CC1(CC[C@]2(c3ccc(OC)c(OC)c3)C=[N+]([O-])O[C@H](O[C@@H]3CCCC[C@H]3C(C)(C)c3ccccc3)C2)OCC(C)(C)CO1 , what call appears in the results of this test?
no (0)

====

# Test system: NCI-H460
# experimental.protocol: NCI tumour cell line growth inhibition, 48 h
Activity calls are given as the source filed them. Cut-off read from the data, not from the text of the source: active = GI50 up to about 1.1 µM and inactive = higher.
measurement.label: GI50

Worked cases, GI50 given:
# compound, measurement.label, result
measured = [
    ("CC1=C2C(=O)[C@H]3[C@@H](CC=C4C[C@@H](O)CC[C@@]43C)[C@@H]2CC[C@]12O[C@@H]1C[C@H](C)CN[C@H]1[C@H]2C", "GI50", "> 44.8 µM (inactive)"),
    ("COc1ccc(C(=O)Nc2ccccc2)cc1[N+](=O)[O-]", "GI50", "> 100 µM (inactive)"),
    ("CC(C)=C/C(CC(O)(C(F)(F)F)C(F)(F)F)=N\\O", "GI50", "> 100 µM (inactive)"),
    ("COC1O[C@@H]2COC(C)(C)O[C@@H]2C(=O)N1Nc1ccc([N+](=O)[O-])cc1 (stereo not given in full)", "GI50", "> 100 µM (inactive)"),
    ("CCC(C)OC(=O)C1C2CCC(O2)C1C(=O)O (stereo not given)", "GI50", "24.7 µM (inactive)"),
    ("CCOc1ncn(-c2ccc(NC(=S)NC34CC5CC(CC(C5)C3)C4)cc2)n1", "GI50", "53.5 µM (inactive)"),
    ("N=c1oc2c(Br)cc(Br)cc2cc1C(=O)Nc1ccccn1", "GI50", "71.9 µM (inactive)"),
    ("COc1ccc(/C=C2\\CCC(CNc3cc(C)on3)C2=O)cc1 (stereo not given)", "GI50", "> 78.5 µM (inactive)"),
    ("O=C1CCCC2=C1CC1=C(CCCC1=O)N2c1ccccc1C(=O)O", "GI50", "> 100 µM (inactive)"),
]

Now look at this one.
Lab note: NCI-H460 assay, enter GI50 for O=C1CSC(=S)N1c1ccco1 here
> 100 µM (inactive)
